EXPERIMENTAL_SYSTEM: T1, ProQNTD (FinO domain of ProQ) (Escherichia coli, UniProt P45577 1-130)
T1 sequence: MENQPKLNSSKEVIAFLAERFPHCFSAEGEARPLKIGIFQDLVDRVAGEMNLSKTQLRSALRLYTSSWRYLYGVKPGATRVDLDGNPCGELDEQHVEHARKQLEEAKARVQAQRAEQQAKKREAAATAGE
TEST_NAME: EMSA; 25 mM Tris-HCl pH 7.5, 150 mM NaCl, 5% glycerol, 1 mM MgCl2, 1 nM 32P-RNA, 30 min at room temperature; native 6% PAGE in 0.5x TBE at 4 C
TEST_CONTEXT: protein: recombinant; tags: pET-15b construct; label: 32P; terminator hairpin
Assign pKd to each entry below.
Expect pKd as a plain number equal to -log10 of the molar concentration.

// Input: RepX-malM (structured_RNA) RNA: GCAUUGAUUGCCUCCUUUGCAGGCAGUUGGUGGACUGGCGCUGGCGGGGUCACUACCCCCGCCCUGCGCCUUUUUUU . Output its pKd only. 8.49

// Input: cspE81-FinP (structured_RNA) RNA: GGCCCUUCUGCUGCAAACGUAAUCGCUCUGUAAGAUACGUCAGCAAGAAUUCAACACCCGCUUAAUCAGCGGGGAUUUU . Output its pKd only. 8.31

// Input: FinP-malM (structured_RNA) RNA: GGAUACAUAGGAACCUCCUCACAAAGGAUUCUAUGGACUGUCGAUGCAGGGAGUUCACGUCUCCCUGCAUCGGCUUUUUUU . Output its pKd only. 8.28
